B1: EEHEE_rd4_0469 (parent)
chain: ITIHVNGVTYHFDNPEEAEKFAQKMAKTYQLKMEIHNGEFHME

Variants of: B1
Experiment: folding stability dG (cDNA display proteolysis); higher = more stable
Settings: PBS, room temperature

>  <variant>
E34Y

>  <folding stability dG [kcal/mol]>
1.78

$$$$
>  <variant>
L31T

>  <folding stability dG [kcal/mol]>
0.775

$$$$
>  <variant>
T9C

>  <folding stability dG [kcal/mol]>
1.86

$$$$
>  <variant>
Y10A

>  <folding stability dG [kcal/mol]>
0.111

$$$$
>  <variant>
H4N

>  <folding stability dG [kcal/mol]>
0.813

$$$$
>  <variant>
T9P

>  <folding stability dG [kcal/mol]>
1.51

$$$$
>  <variant>
T2D

>  <folding stability dG [kcal/mol]>
1.13

$$$$
>  <variant>
T28D

>  <folding stability dG [kcal/mol]>
1.87

$$$$
>  <variant>
K27Y

>  <folding stability dG [kcal/mol]>
1.27

$$$$
>  <variant>
H41M

>  <folding stability dG [kcal/mol]>
0.892

$$$$
>  <variant>
A18F

>  <folding stability dG [kcal/mol]>
1

$$$$
>  <variant>
Q23W

>  <folding stability dG [kcal/mol]>
1.36

$$$$
>  <variant>
I1K

>  <folding stability dG [kcal/mol]>
0.846

$$$$
>  <variant>
T2G

>  <folding stability dG [kcal/mol]>
0.665

$$$$
>  <variant>
E17I

>  <folding stability dG [kcal/mol]>
1.09

$$$$
>  <variant>
M42W

>  <folding stability dG [kcal/mol]>
0.913

$$$$
>  <variant>
E34F

>  <folding stability dG [kcal/mol]>
1.82

$$$$
>  <variant>
H11R

>  <folding stability dG [kcal/mol]>
1.13

$$$$
>  <variant>
H41V

>  <folding stability dG [kcal/mol]>
1.11

$$$$
>  <variant>
A18K

>  <folding stability dG [kcal/mol]>
0.431

$$$$
>  <variant>
Y29H

>  <folding stability dG [kcal/mol]>
1.45

$$$$
>  <variant>
F21M

>  <folding stability dG [kcal/mol]>
0.206

$$$$
>  <variant>
T2I

>  <folding stability dG [kcal/mol]>
1.24

$$$$
>  <variant>
A22G

>  <folding stability dG [kcal/mol]>
0.3

$$$$
